procedure-summary: in vivo
stated-conditions: female, Sprague Dawley, rat, sc
value-type: half-life (h)
Express it in h; write the number only.

Query: Output measured half-life for this item: `Cc1cccc([C@H](C)c2cnc[nH]2)c1C`
Response: 2

====

procedure-summary: in vivo
stated-conditions: female, Sprague Dawley, rat, sc
value-type: Tmax (min)
Express it in min; write the number only.

Query: Output measured Tmax for this item: `Cc1cccc([C@H](C)c2cnc[nH]2)c1C`
Response: 30
